experiment: in vivo; parameters: species or system mouse; conditions: female, CD1, mouse, in vivo, brain/plasma, Day 4; read-out: Kp (Cb/Cp)
REPORTED ENDPOINT: Kp
// keep it numeric: no unit symbol after the value

Requested read-out: Kp. Entry: COc1ccc(NC(=O)N2CCCCN3[C@H](CN(C)C)[C@H](c4ccc(C#Cc5ccccc5)cc4)[C@@H]3C2)cc1 [BRD7929]
211

----------
Provide the recorded EC50 for the entries that follow.
assay: in vitro; assay type: cell-based, human; settings: human; nuclei count, 44 h after compound addition, top 20 μM; read-out: HEPG2 EC50
Enter your answer as a number in µM; do not include the unit.

Requested read-out: EC50. Entry: COc1ccc(NC(=O)N2CCCCN3[C@H](CN(C)C)[C@H](c4ccc(C#Cc5ccccc5)cc4)[C@@H]3C2)cc1
3.06

Requested read-out: EC50. Entry: COc1ccc(NC(=O)N2CCCCN3[C@H](CO)[C@H](c4ccc(C#Cc5ccccc5)cc4)[C@@H]3C2)cc1
11.3

----------
assay: in vivo; parameters: species or system mouse; settings: female, CD1, mouse, in vivo, po, 10 mg/kg/day, mouse, 10 mg/kg/day p.o., Day 8
REPORTED ENDPOINT: AUC(0-inf) (µg·h/mL)
Enter your answer as a number in µg·h/mL; do not include the unit.

Requested read-out: AUC(0-inf). Entry: COc1ccc(NC(=O)N2CCCCN3[C@H](CN(C)C)[C@H](c4ccc(C#Cc5ccccc5)cc4)[C@@H]3C2)cc1 [BRD7929]
19.9

----------
assay: in vivo; design: species or system mouse; details: female, CD1, mouse, in vivo, po, 10 mg/kg/day, mouse, 10 mg/kg/day p.o., Day 1; read-out: AUC0–24
REPORTED ENDPOINT: AUC(0-t) (ng·h/mL)
Enter your answer as a number in ng·h/mL; do not include the unit.

Requested read-out: AUC(0-t). Entry: COc1ccc(NC(=O)N2CCCCN3[C@H](CN(C)C)[C@H](c4ccc(C#Cc5ccccc5)cc4)[C@@H]3C2)cc1 [BRD7929]
3190

----------
experiment: in vivo; parameters: species or system mouse; conditions: female, CD1, mouse, in vivo, unbound brain/plasma, Day 8; read-out: Kpu,u (Cb/Cp)
REPORTED ENDPOINT: Kp
// keep it numeric: no unit symbol after the value

Requested read-out: Kp. Entry: COc1ccc(NC(=O)N2CCCCN3[C@H](CN(C)C)[C@H](c4ccc(C#Cc5ccccc5)cc4)[C@@H]3C2)cc1
7.2

----------
experiment: in vivo; design: species or system mouse; conditions: female, CD1, mouse, in vivo, po, 10 mg/kg/day, mouse, 10 mg/kg/day p.o., Day 4
REPORTED ENDPOINT: CL/F (mL/min/kg)
Enter your answer as a number in mL/min/kg; do not include the unit.

Requested read-out: CL/F. Entry: COc1ccc(NC(=O)N2CCCCN3[C@H](CN(C)C)[C@H](c4ccc(C#Cc5ccccc5)cc4)[C@@H]3C2)cc1
7.1

----------
assay: in vivo; set-up: species or system mouse; details: female, CD1, mouse, in vivo, brain/plasma, Day 1; read-out: Kp (Cb/Cp)
REPORTED ENDPOINT: Kp
// keep it numeric: no unit symbol after the value

Requested read-out: Kp. Entry: COc1ccc(NC(=O)N2CCCCN3[C@H](CN(C)C)[C@H](c4ccc(C#Cc5ccccc5)cc4)[C@@H]3C2)cc1
169
